# study_system: α4β7 integrin on mouse TK1 cells (mouse, UniProt Q00651 41-1039; P26011 20-806)
# Sequence (Q00651 41-1039, chain 1 of 2): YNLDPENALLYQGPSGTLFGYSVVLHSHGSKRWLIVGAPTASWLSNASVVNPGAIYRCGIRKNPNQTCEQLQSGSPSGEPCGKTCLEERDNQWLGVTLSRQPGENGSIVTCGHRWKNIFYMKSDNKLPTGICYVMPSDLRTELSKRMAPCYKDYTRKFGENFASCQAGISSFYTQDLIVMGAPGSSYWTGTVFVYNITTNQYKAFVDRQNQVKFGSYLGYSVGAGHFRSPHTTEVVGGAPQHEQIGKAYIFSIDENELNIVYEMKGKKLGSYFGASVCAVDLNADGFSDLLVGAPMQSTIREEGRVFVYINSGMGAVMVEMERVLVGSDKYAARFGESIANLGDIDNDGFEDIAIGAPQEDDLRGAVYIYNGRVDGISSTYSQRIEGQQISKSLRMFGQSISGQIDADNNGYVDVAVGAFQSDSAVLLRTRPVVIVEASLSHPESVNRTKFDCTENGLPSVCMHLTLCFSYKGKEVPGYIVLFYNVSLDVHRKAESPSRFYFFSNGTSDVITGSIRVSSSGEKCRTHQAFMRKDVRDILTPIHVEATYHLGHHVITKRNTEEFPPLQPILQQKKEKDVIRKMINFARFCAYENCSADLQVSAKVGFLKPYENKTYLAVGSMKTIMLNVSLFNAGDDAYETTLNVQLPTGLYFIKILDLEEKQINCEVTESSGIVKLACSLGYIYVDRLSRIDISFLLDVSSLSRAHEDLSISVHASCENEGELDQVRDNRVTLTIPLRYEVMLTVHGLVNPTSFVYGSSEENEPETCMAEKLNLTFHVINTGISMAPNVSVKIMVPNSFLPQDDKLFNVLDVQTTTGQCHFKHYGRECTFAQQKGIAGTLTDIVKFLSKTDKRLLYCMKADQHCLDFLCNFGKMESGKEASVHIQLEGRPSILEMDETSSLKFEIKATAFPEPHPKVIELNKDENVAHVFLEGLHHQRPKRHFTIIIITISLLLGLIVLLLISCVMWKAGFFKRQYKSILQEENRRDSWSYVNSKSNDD
# Sequence (P26011 20-806, chain 2 of 2): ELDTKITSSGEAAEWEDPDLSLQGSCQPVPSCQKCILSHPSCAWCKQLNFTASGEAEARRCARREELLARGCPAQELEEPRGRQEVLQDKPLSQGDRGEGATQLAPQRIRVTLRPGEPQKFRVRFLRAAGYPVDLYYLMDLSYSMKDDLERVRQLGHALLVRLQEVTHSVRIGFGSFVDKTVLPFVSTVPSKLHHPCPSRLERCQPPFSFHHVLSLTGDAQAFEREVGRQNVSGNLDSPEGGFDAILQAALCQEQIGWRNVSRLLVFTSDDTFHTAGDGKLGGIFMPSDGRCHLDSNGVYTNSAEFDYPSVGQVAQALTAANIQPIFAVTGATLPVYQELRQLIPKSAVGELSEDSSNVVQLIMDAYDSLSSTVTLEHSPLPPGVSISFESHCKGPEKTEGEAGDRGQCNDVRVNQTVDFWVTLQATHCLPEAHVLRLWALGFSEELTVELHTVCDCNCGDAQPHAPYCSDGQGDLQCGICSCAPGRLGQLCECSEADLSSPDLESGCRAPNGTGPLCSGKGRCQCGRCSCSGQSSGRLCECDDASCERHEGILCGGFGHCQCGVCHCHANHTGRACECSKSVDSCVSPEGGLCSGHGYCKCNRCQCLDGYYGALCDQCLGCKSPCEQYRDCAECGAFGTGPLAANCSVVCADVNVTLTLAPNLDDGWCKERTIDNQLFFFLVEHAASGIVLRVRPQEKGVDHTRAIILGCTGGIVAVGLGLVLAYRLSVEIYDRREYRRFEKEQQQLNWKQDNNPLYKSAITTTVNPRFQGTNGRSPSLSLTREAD
# assay_overview: cell-based or functional assay
Bridge positions count the residues as written; N and C are the ends. Square brackets hold non-standard residues; d marks the D form. Bip = N[C@@H](Cc1ccc(-c2ccccc2)cc1)C(=O)O; 1Nal = N[C@@H](Cc1cccc2ccccc12)C(=O)O; 2Nal = N[C@@H](Cc1ccc2ccccc2c1)C(=O)O; NMeR = CN[C@@H](CCCNC(=N)N)C(=O)O; Tic = O=C(O)[C@@H]1Cc2ccccc2CN1; β3hE = N[C@@H](CCC(=O)O)CC(=O)O; NMeK = CN[C@@H](CCCCN)C(=O)O; Pen = CC(C)(S)[C@H](N)C(=O)O; dNMeK = CN[C@H](CCCCN)C(=O)O
measured_property: α4β7 cell(Mu) IC50

>>> reading("Ac-[Pen][NMeR]SDTL[Pen][1Nal]E[dNMeK]-NH2 (disulfide 1-7 (inferred); also: homodimer via DIG linker) [SEQ ID NO 44]")
"≤ 10 nM"
>>> reading("Ac-[Pen][NMeR]SDTL[Pen][2Nal][b‑H‑E]-NH2 (disulfide 1-7 (inferred)) [SEQ ID NO 155]")
"> 25 nM"
>>> reading("Ac-[Pen][NMeR]SDTL[Pen][Tic][β3hE]-NH2 (disulfide 1-7 (inferred)) [SEQ ID NO 154]")
"> 1000 nM"
>>> reading("Ac-[Pen][NMeR]SDTL[Pen]WE(OMe)[dK]-NH2 (disulfide 1-7 (inferred); also: homodimer linked by DIG) [SEQ ID NO 86]")
"≤ 10 nM"
>>> reading("Ac-[Pen][NMeR]SDTL[Pen][Bip][b‑H‑E][NMeK]-NH2 (disulfide 1-7 (inferred); also: homodimer via DIG) [SEQ ID NO 150]")
"≤ 10 nM"
